Entry source: patent US10206394B2

System: Lolium perenne (LOLPE)
Test: Glasshouse assay for herbicidal activity (pre- and post-emergence), percentage phytotoxicity
Format: in vivo
Settings: Lolium perenne, pre-emergence, 480 h, 250 g/ha; pre-emergence; 20 DAA; visual assessment (100%=total damage, 0%=no damage); read-out: Pre-emergence herbicidal activity (percentage phytotoxicity) LOLPE PRE
Catalogue of pest or weed control at 250 g/ha readings, one per entry.
The response must be a number in % with no trailing unit.

Known results for molecules:
* Cc1cc(-c2ncc(F)cc2F)cc(C)c1C1C(=O)CC(CC(=O)NCc2ccc(C(F)(F)F)cc2)C1=O (centres unmarked) | 90
* C#CCN(CC#C)C(=O)CC1CC(=O)C(c2c(C)cc(C)cc2C)C1=O (centres unmarked) | 80
* COc1ccc(CNC(=O)CC2CC(=O)C(c3c(C)cc(C)cc3C)C2=O)cc1 (centres unmarked) | 100
* Cc1cc(C)c(C2C(=O)CC(CC(=O)NCC(CF)CF)C2=O)c(C)c1 (centres unmarked) | 90
* CCCNC(=O)CC1CC(=O)C(c2c(C)cc(-c3ncc(Cl)cc3F)cc2C)C1=O (centres unmarked) | 100
* C=C(Br)CNC(=O)CC1CC(=O)C(c2c(C)cc(C)cc2C)C1=O (centres unmarked) | 100
* Cc1cc(-c2ncc(F)cc2F)cc(C)c1C1C(=O)C[C@@H](CC(=O)NC(C)(C)C)C1=O (some centres unmarked) | 100

Attention now shifts to the item below.
Report pest or weed control at 250 g/ha for Cc1cc(-c2ccc(C#N)cn2)cc(C)c1C1C(=O)CC(CC(=O)NC(C)(C)C)C1=O (centres unmarked) please.
90

====

System: Alopecurus myosuroides (ALOMY)
Assay: Glasshouse assay for herbicidal activity (pre- and post-emergence), percentage phytotoxicity
Assay type: in vivo
Details: Alopecurus myosuroides, pre-emergence, 480 h, Rate 250 g/ha; pre-emergence; visual assessment 20 DAA; 100%=total damage, 0%=no damage; read-out: Pre-emergence herbicidal activity (percentage phytotoxicity) ALOMY PRE
MEASURED PARAMETER: pest or weed control at 250 g/ha (%)
Give the value in % but do not write % after it.

- Cc1cc(-c2ccc(F)cn2)cc(C)c1C1C(=O)CC(CC(=O)NCc2cccc(F)c2)C1=O (centres unmarked): 90
- Cc1cc(-c2ncc(Cl)cn2)cc(C)c1C1C(=O)CC(CC(=O)NCc2cccs2)C1=O (centres unmarked): 80
- Cc1cc(-c2ccc(F)cc2)cc(C)c1C1C(=O)CC(CC(=O)NC(C)(C)C#N)C1=O (centres unmarked): 90
- C=C(C)CNC(=O)CC1CC(=O)C(c2c(C)cc(-c3ccc(Cl)cn3)cc2C)C1=O (centres unmarked): 90

Sample Cc1cc(-c2ccc(Cl)cn2)cc(C)c1C1C(=O)CC(CC(=O)N(C)Cc2cccc(F)c2)C1=O (centres unmarked) — what was its pest or weed control at 250 g/ha?
90

====

Tested on: Lolium perenne (LOLPE)
Test: Glasshouse assay for herbicidal activity (pre- and post-emergence), percentage phytotoxicity
Assay type: in vivo
Conditions: Lolium perenne, post-emergence, 360 h, POST-emergence, rate 250 g/ha, visual score 15 DAA (100%=total damage, 0%=no damage); read-out: Post-emergence herbicidal activity (percentage phytotoxicity) LOLPE POST
Attribute: pest or weed control at 250 g/ha
All answers are understood in %, so give the number only.

Guide cases for pest or weed control at 250 g/ha, answers given:
* CCNC(=O)CC1CC(=O)C(c2c(C)cc(-c3ccc(C#N)cn3)cc2C)C1=O (centres unmarked) | 90
* CCNC(=O)CC1CC(=O)C(c2c(C)cc(-c3ncc(F)cc3F)cc2C)C1=O (centres unmarked) | 100

What measured pest or weed control at 250 g/ha goes with CCCNC(=O)CC1CC(=O)C(c2c(C)cc(-n3cc(Cl)cn3)cc2C)C1=O (centres unmarked) ?
90

What pest or weed control at 250 g/ha value was documented for this compound, Cc1cc(-c2ccc(C#N)cn2)cc(C)c1C1C(=O)CC(CC(=O)NCc2cccc(Cl)c2)C1=O (centres unmarked) ?
90

====

Tested on: Alopecurus myosuroides (ALOMY)
Experiment: Glasshouse assay for herbicidal activity (pre- and post-emergence), percentage phytotoxicity
Type: in vivo
Settings: Alopecurus myosuroides, pre-emergence, 480 h, Rate 250 g/ha; pre-emergence; assessed visually 20 DAA; 100%=total damage, 0%=no damage; read-out: Pre-emergence herbicidal activity (percentage phytotoxicity) ALOMY PRE
hey, just use Criterion met if measured pest or weed control at 250 g/ha is less than 90%, otherwise Criterion not met

Check out these entries, answers already filled in.
* Cc1cnc(CNC(=O)CC2CC(=O)C(c3c(C)cc(-c4ncc(F)cn4)cc3C)C2=O)cn1 (centres unmarked) | Criterion met
* C#CC(C)(C)NC(=O)CC1CC(=O)C(c2c(C)cc(C#CC)cc2C)C1=O (single isomer, unassigned) | Criterion not met
* CC#Cc1cc(C)c(C2C(=O)CC(CC(=O)NCCOC)C2=O)c(CC)c1 (centres unmarked) | Criterion not met
* COCCNC(=O)CC1CC(=O)C(c2c(C)cc(-c3ncc(F)cn3)cc2C)C1=O (centres unmarked) | Criterion met
* Cc1cc(C)c(C2C(=O)CC(C(C)C(=O)NCc3cccc(C(F)(F)F)c3)C2=O)c(C)c1 (centres unmarked) | Criterion met

Is the reported pest or weed control at 250 g/ha for Cc1cc(C)c(C2C(=O)CC(CC(=O)NCCc3ccccc3)C2=O)c(C)c1 (centres unmarked) strictly below 90%?
Criterion met

Record Cc1ccsc1CNC(=O)CC1CC(=O)C(c2c(C)cc(-c3ncc(Cl)cc3F)cc2C)C1=O (centres unmarked) : is its pest or weed control at 250 g/ha strictly below 90%?
Criterion met

Please determine if CC#Cc1cc(C)c(C2C(=O)CC(CC(=O)NC3CC3)C2=O)c(CC)c1 (centres unmarked) is below 90% in terms of pest or weed control at 250 g/ha.
Criterion not met

In plain terms, does Cc1cc(-c2ccc(Cl)cn2)cc(C)c1C1C(=O)CC(CC(=O)NC(C)(C)C)C1=O (centres unmarked) come in under 90% for pest or weed control at 250 g/ha?
Criterion not met

Is pest or weed control at 250 g/ha of CCCN(C)C(=O)CC1CC(=O)C(c2c(C)cc(C)cc2C)C1=O (centres unmarked) strictly below 90%?
Criterion met

====

System: Lolium perenne (LOLPE)
Assay: Glasshouse assay for herbicidal activity (pre- and post-emergence), percentage phytotoxicity
Type: in vivo
Details: Lolium perenne, pre-emergence, 480 h, Rate 250 g/ha; pre-emergence; visual assessment 20 DAA; 100%=total damage, 0%=no damage; read-out: Pre-emergence herbicidal activity (percentage phytotoxicity) LOLPE PRE
Procedure: Test—Glasshouse Assay for Herbicidal Activity Seeds of a variety of monocotyledonous and dicotyledonous test plants are sown in standard soil in pots. The plants are cultivated for one day (for pre-emergence (PRE)) or for about 12 days (for post-emergence (POST)) under controlled conditions in a glasshouse (warm climate species at 24/18° C., cool climate species at 20/16° C., both at day/night; 16 hours light; 65% humidity). […]
molecules and their reported pest or weed control at 250 g/ha

• C=CC(C)NC(=O)CC1CC(=O)C(c2c(C)cc(-c3ccc(Cl)cn3)cc2C)C1=O (stereo not drawn) [Compound B365] = 100%

What value of pest or weed control at 250 g/ha on Lolium perenne (LOLPE) does Cc1cc(-c2ccc(Cl)cn2)cc(C)c1C1C(=O)CC(CC(=O)NC(C)C)C1=O (stereo not drawn) [Compound B360] have?
100%

# get_value(readout= pest or weed control at 250 g/ha, system= Lolium perenne (LOLPE)) for Cc1cc(-c2ncc(Cl)cn2)cc(C)c1C1C(=O)CC(CC(=O)NC(C)C)C1=O (stereo not drawn) [Compound B340]
100%

What reported pest or weed control at 250 g/ha corresponds to Cc1cc(-c2ncc(Cl)cn2)cc(C)c1C1C(=O)CC(CC(=O)N(C)C(C)C)C1=O (stereo not drawn) [Compound B351] on Lolium perenne (LOLPE)?
100%

// fetch Lolium perenne (LOLPE) pest or weed control at 250 g/ha for COCC(C)(C)NC(=O)CC1CC(=O)C(c2c(C)cc(-c3ccc(Cl)cn3)cc2C)C1=O (stereo not drawn) [Compound B364]
90%

API: value(readout=pest or weed control at 250 g/ha, system=Lolium perenne (LOLPE)) for record Cc1ccc(CNC(=O)CC2CC(=O)C(c3c(C)cc(-c4ncc(Cl)cn4)cc3C)C2=O)cc1 (stereo not drawn) [Compound B355]
70%

====

Listed here are compounds together with their documented pest or weed control at 250 g/ha.
System: Lolium perenne (LOLPE)
Test: Glasshouse assay for herbicidal activity (pre- and post-emergence), percentage phytotoxicity
Type: in vivo
Settings: Lolium perenne, pre-emergence, 480 h, PRE-emergence, rate 250 g/ha, visual score 20 DAA (100%=total damage, 0%=no damage); read-out: Pre-emergence herbicidal activity (percentage phytotoxicity) LOLPE PRE
Write it as a number; the unit % goes unstated.

Worked examples follow.
- C/C=C/c1cc(C)c(C2C(=O)CC(CC(=O)NCc3ccc(OC)cc3)C2=O)c(CC)c1 (stereo not shown) [Compound B189]: 80
- Cc1cc(-c2ncc(F)cc2F)cc(C)c1C1C(=O)CC(CC(=O)NCc2ccccc2)C1=O (stereo not shown) [Compound B181]: 100
- Cc1cc(Br)cc(C)c1C1C(=O)CC(CC(=O)NC/C=C/Cl)C1=O (stereo not shown) [Compound B176]: 90
- C#CCN(C)C(=O)CC1CC(=O)C(c2c(C)cc(OCC(F)(F)F)cc2CC)C1=O (stereo not shown) [Compound B222]: 100
- C=CCNC(=O)CC1CC(=O)C(c2c(C)cc(-n3cc(Cl)cn3)cc2CC)C1=O (stereo not shown) [Compound B236]: 90
- CCN(C)C(=O)CC1CC(=O)C(c2c(C)cc(-n3cc(Cl)cn3)cc2C)C1=O (stereo not shown) [Compound B228]: 100
- Cc1cc(-c2ncc(F)cn2)cc(C)c1C1C(=O)CC(CC(=O)N(C)C(C)(C)C)C1=O (stereo not shown) [Compound B331]: 100
- CCc1cc(OCC(F)(F)F)cc(C)c1C1C(=O)CC(CC(=O)NCc2ccc(OC)cc2)C1=O (stereo not shown) [Compound B215]: 90
- C/C=C/c1cc(C)c(C2C(=O)CC(CC(N)=O)C2=O)c(C)c1 (stereo not shown) [Compound B175]: 100
- C/C=C/c1cc(C)c(C2C(=O)CC(CC(=O)NCc3ccc(C#N)cc3)C2=O)c(CC)c1 (stereo not shown) [Compound B191]: 70

# input compound: CCc1cc(C)cc(C)c1C1C(=O)CC(CC(=O)NCc2cccc(F)c2)C1=O (stereo not shown) [Compound B252] ; wanted: its pest or weed control at 250 g/ha
100

Could you tell me which pest or weed control at 250 g/ha is on file for CCC(C)NC(=O)CC1CC(=O)C(c2c(C)cc(-n3cc(Cl)cn3)cc2C)C1=O (stereo not shown) [Compound B315] ?
70

Would you mind telling me what pest or weed control at 250 g/ha value was observed for Cc1cc(OCC(F)(F)F)cc(C)c1C1C(=O)CC(CC(=O)N(C)C(C)(C)C)C1=O (stereo not shown) [Compound B212] ?
90

Give its pest or weed control at 250 g/ha value. Item: CCNC(=O)CC1CC(=O)C(c2c(C)cc(-c3ccc(Cl)cn3)cc2C)C1=O (stereo not shown) [Compound B306]
100

So what does the record say about pest or weed control at 250 g/ha for C=CC(C)NC(=O)CC1CC(=O)C(c2c(C)cc(-c3ncc(F)cc3F)cc2C)C1=O (stereo not shown) [Compound B330] ?
100

Name the recorded pest or weed control at 250 g/ha for C=CCNC(=O)CC1CC(=O)C(c2c(C)cc(OCC(F)(F)F)cc2CC)C1=O (stereo not shown) [Compound B218] .
100
